# Test system: Platelet-derived growth factor receptor alpha (Homo sapiens), P16234 [V561D]
# Sequence (P16234 whole entry V561D): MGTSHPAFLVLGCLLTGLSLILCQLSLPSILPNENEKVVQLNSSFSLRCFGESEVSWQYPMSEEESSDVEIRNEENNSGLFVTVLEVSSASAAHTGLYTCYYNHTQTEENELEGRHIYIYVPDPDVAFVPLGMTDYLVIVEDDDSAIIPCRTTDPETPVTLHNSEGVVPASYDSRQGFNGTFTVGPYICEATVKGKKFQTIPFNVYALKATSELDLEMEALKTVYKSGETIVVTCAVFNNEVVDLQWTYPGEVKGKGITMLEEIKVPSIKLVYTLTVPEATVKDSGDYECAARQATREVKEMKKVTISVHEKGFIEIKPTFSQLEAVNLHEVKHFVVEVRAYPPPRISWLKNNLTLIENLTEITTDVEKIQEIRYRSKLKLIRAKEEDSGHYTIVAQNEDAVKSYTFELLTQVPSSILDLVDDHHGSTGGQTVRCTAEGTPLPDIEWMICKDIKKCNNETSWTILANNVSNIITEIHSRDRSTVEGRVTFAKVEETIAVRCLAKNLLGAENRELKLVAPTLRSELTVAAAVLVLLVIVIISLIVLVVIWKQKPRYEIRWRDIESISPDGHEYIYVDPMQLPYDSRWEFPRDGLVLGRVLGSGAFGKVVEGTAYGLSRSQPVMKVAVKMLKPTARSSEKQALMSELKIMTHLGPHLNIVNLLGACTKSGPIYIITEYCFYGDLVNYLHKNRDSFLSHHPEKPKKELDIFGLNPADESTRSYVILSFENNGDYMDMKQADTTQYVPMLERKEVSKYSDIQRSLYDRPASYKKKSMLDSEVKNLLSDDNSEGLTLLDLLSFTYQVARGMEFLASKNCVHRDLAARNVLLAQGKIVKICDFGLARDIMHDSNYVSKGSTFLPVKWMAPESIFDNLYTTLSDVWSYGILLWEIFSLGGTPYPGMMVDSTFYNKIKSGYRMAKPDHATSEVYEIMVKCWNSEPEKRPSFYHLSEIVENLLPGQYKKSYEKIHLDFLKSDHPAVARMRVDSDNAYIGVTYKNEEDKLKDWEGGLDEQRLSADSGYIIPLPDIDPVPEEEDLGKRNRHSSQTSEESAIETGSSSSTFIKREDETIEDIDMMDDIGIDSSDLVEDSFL
# particulars: at 1 µM
propertyName: inhibition (%)
Respond numerically; units are % and should not be typed.

Solved cases (3 shown):
COc1cc2ncn(-c3cc(OCc4ccccc4S(C)(=O)=O)c(C#N)s3)c2cc1OC
87.8
c1ccc(Cc2nc3ccc(Nc4ncnc5ccccc45)cc3[nH]2)cc1
12.9
COc1cccc(-n2ncc3c(N/N=C/c4ccc(C)cc4)ncnc32)c1
25.9

Okay, next one:
Problem: Report inhibition, nothing else, for this compound: Nc1nccc(C#Cc2cncnc2Nc2ccc(OCc3cccc(F)c3)c(Cl)c2)n1
Result: 4.88

* * *

# subjectOfTest: Serine/threonine-protein kinase PAK 1 (Homo sapiens)
# particulars: at 0.1 µM
propertyName: inhibition (%)
Respond numerically; units are % and should not be typed.

CCS(=O)(=O)c1ccc(OC)c(Nc2ncc(-c3cccc(OC)c3)o2)c1
2.01
COC(=O)Nc1nc2cc(Oc3ccc(NC(=O)Nc4cccc(Br)c4)cc3)ccc2[nH]1
-0.8
NS(=O)(=O)c1cccc(Nc2cc(-c3ccc(F)cc3)n[nH]2)c1
3.94
Cc1ccc(O)cc1Nc1ccnc2ccc(S(C)(=O)=O)cc12
9.27
CCOc1nccc2c1nc(-c1nonc1N)n2CC
5.11
CC(C)c1ccc2c(c1)NC(=O)/C2=N/Nc1ccc(S(N)(=O)=O)cc1
-1.3
Oc1cccc(-c2nc(-c3ccccc3)[nH]c2-c2ccncc2)c1
6.65
COc1ccc2ncnc(Nc3ccc(OCc4ccccc4)cc3)c2c1
0.31

Problem: Provide Serine/threonine-protein kinase PAK 1 (Homo sapiens) inhibition reading for COc1ccc(-c2nn3ncccc3c2-c2ccnc(Nc3cccc(C(F)(F)F)c3)n2)cc1 .
Result: 6.36

Problem: Provide Serine/threonine-protein kinase PAK 1 (Homo sapiens) inhibition reading for CN(C)c1cc2c(Nc3ccc4c(cnn4Cc4ccccc4)c3)ncnc2cn1 .
Result: 6.36

Problem: Provide Serine/threonine-protein kinase PAK 1 (Homo sapiens) inhibition reading for c1ccc(Nc2ncc(-c3ccccc3)o2)cc1 .
Result: 6.49

* * *

# subjectOfTest: Protein-tyrosine kinase 2-beta (Homo sapiens) (UniProt Q14289)
# Sequence (Q14289 whole entry, looked up): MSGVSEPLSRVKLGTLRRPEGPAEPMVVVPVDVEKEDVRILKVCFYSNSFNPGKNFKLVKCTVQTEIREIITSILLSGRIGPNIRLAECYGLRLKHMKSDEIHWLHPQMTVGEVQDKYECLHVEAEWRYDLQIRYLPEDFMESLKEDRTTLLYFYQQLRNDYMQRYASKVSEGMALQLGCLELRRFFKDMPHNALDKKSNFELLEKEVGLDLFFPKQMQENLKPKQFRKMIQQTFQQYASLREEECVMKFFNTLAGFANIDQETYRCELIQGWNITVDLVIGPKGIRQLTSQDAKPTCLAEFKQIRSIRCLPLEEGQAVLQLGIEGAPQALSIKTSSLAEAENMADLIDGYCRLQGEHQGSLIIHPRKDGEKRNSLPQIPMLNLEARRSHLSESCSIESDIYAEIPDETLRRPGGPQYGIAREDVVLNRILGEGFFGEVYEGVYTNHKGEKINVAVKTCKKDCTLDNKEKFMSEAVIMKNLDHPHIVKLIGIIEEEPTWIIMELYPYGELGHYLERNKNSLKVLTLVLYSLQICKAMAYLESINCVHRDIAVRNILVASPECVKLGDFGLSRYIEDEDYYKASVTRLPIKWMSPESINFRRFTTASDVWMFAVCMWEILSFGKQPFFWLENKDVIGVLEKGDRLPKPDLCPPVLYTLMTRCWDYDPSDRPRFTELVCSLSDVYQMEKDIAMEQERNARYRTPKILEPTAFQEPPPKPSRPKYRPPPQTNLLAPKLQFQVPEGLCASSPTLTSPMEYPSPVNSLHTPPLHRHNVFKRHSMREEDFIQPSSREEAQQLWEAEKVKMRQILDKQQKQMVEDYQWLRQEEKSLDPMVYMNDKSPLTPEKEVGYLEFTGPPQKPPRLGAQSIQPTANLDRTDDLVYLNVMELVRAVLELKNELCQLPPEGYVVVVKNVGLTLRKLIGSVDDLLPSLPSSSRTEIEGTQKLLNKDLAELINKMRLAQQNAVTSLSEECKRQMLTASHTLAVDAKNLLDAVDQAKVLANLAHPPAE
# particulars: at 0.1 µM
Reported inhibition values follow for various compounds
Respond numerically; units are % and should not be typed.

Solved cases (6 shown):
COC(=O)c1cncc(/C=C/c2c(C)cc(O)cc2C)c1
9.3
CCOc1nccc2c1nc(-c1nonc1N)n2CC
5.11
CN(c1ccc(NC(=O)Nc2ccc(OC(F)(F)F)cc2)cc1)c1ccnc(Nc2cccc(S(N)(=O)=O)c2)n1
5.52
Cc1ccc2c(-c3ccnc(Nc4ccc5c(c4)OCCO5)n3)c(-c3ccc(C(F)(F)F)cc3)nn2n1
-0.75
CN1CCN(C(=O)c2ccc(NC(=O)Nc3ccc(N(C)c4ccnc(Nc5ccc(CS(C)(=O)=O)cc5)n4)cc3)cc2)CC1
29.2
O=S(=O)(CCOCc1ccc(-c2ccc3ncnc(Nc4ccc(OCc5cccc(F)c5)c(Cl)c4)c3c2)o1)c1ccccc1
4.11

Problem: Report inhibition, nothing else, for this compound: COc1cc2ncnc(Nc3ccc4c(cnn4Cc4ccccc4)c3)c2cc1OC
Result: 6.05

Problem: Report inhibition, nothing else, for this compound: CC(C)c1ccc(Nc2nccc(-c3cnn4ncccc34)n2)cc1
Result: 12

Problem: Report inhibition, nothing else, for this compound: COC(=O)Nc1nc2cc(Oc3ccc(NC(=O)Nc4cccc(Br)c4)cc3)ccc2[nH]1
Result: 5.36

Problem: Report inhibition, nothing else, for this compound: NS(=O)(=O)c1ccc(N/N=C2\C(=O)Nc3ccc(Cl)cc32)cc1
Result: 6.41

Problem: Report inhibition, nothing else, for this compound: c1ccc(Nc2ncc(-c3ccccc3)o2)cc1
Result: 10.4

Problem: Report inhibition, nothing else, for this compound: COc1cccc(-n2nc(C)c3c(N/N=C(\C)c4ccncc4)ncnc32)c1
Result: 1.44
